// data source = the RNAGym collection of RNA variant scans (doi:10.1126/science.aae0568)

Consider the following variants and their measured yeast fitness readings.
B1: tRNA (parent)
chain: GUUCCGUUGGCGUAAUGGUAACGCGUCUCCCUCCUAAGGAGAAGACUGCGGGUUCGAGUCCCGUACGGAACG

# Variants of: B1
# experiment: yeast fitness relative to wild type (ratio to wild type); higher = fitter; tRNA-Arg(CCU), competitive growth, 37 C, YPD
Fewer inactive variants are shown than the library holds.
In your answer, state the number alone without any accompanying words.

{"monomer_sequence": "GUUCCGUUGGCGUAAUGGUAACGCGUCUCCCUCCUAAGGAGAAGCAUGCGGGUUCGAGUCCAGUACGGAACG", "yeast fitness": 0.603}
{"monomer_sequence": "GUUCCGUUGGCGUAAUGGUAACGCGUCUCCCUCCUAACGAGAAGUCUGCGGGUUCGAGUCCCGUACGGAACG", "yeast fitness": 0.599}
{"monomer_sequence": "GUUCCGUUGGCGGAAUGGUAACGCGUCUCCCUCCUAAGGAGAAGACUGCGGGUUCGACUCCCGUACCGAACG", "yeast fitness": 0.603}

Task: May I ask what yeast fitness has been recorded for `GUUCCGGUGGUGUAAUGGUAACGCGUCUCCCUCCUAAGGAGAAGACUGCGGGUUCGAAUCCCGUACGGAACG` ?
Result: 0.589

Task: What would you report for `GUUCCGUUGGCGUAAUGGUAACGCGUCUCCCUCUCAAGGAGAAGACUGCGGGUUCGAGUCCCGUACGGAACG` ?
Result: 0.607
